molecular target: cPAH D139A (Chromobacterium violaceum, UniProt P30967, D139A); assay: ITC, Fe; assay type: binding; conditions: anaerobic, 25 °C, 2.5 mM TCEP
MEASURED_ATTRIBUTE: pKd
Lab note — pKd values are minus log10 of concentrations in M.

Q: Query: pKd; subject: O=S(=O)([O-])[O-].O=S(=O)([O-])[O-].[Fe+2].[NH4+].[NH4+] [Fe(II), ferrous ammonium sulfate]
Ans: 6.03

* * *

Target: cPAH D139N (Chromobacterium violaceum, UniProt P30967, D139N)
Sequence (P30967 1-297 D139N): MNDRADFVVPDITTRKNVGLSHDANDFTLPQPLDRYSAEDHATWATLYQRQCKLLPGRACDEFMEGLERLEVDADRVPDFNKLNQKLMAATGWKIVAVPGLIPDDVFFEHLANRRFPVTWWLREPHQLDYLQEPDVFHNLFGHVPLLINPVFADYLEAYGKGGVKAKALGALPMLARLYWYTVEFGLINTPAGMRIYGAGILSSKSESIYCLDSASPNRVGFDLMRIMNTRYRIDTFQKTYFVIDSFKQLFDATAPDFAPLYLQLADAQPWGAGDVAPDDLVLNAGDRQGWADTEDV
Test: ITC, L-Phe binding to iron-reconstituted enzyme with excess BH4
MEASURED_ATTRIBUTE: Kd (µM)
Give the number; µM is assumed, so skip it.

Q: Query: Kd; subject: "N[C@@H](Cc1ccccc1)C(=O)O"
Ans: 37
